tested on: LG0567-F671-PDC complex spheroids viability; test: Anticancer human tumor LG0567-F671-PDC patient-derived lung adenocarcinoma cell line growth inhibition [RAS]; settings: second compound 1 µM; first compound 0.1 µM; active = viability on the fitted dose curve at most 10% of control; inactive = the rest
One label from this list, please: Y = active, N = inactive

{"Molecule": "CCC(CC)c1cc(NC2CCC(N)C2)n2nccc2n1 (stereo unspecified) + C=CC(=O)N1CCN(c2nc(OCC3CCCN3C)nc3c(F)c(-c4nc(N)cc(C)c4C(F)(F)F)c(Cl)cc23)C(C)C1", "Target Or Test System": "LG0567-F671-PDC complex spheroids viability", "Group": "N"}
{"Molecule": "C=CC(=O)N1CCN(c2nc(OCC3CCCN3C)nc3c(F)c(-c4nc(N)cc(C)c4C(F)(F)F)c(Cl)cc23)C(C)C1 (stereo unspecified) + C#Cc1c(F)ccc2cc(O)cc(-c3ncc4c(N5CC6CCC(C5)N6)nc(OCC56CCCN5CC(F)C6)nc4c3F)c12", "Target Or Test System": "LG0567-F671-PDC complex spheroids viability", "Group": "Y"}
{"Molecule": "CC(Nc1ccc2c(c1)OCCn1cc(N3C(=O)OCC3C(F)F)nc1-2)C(N)=O (stereo unspecified) + C#Cc1c(F)ccc2cc(O)cc(-c3ncc4c(N5CC6CCC(C5)N6)nc(OCC56CCCN5CC(F)C6)nc4c3F)c12", "Target Or Test System": "LG0567-F671-PDC complex spheroids viability", "Group": "N"}
{"Molecule": "O=C(c1ccc(F)c(F)c1Nc1ccc(I)cc1F)N1CC(O)([C@@H]2CCCCN2)C1 + C=CC(=O)N1CCN(c2nc(OCC3CCCN3C)nc3c(F)c(-c4nc(N)cc(C)c4C(F)(F)F)c(Cl)cc23)C(C)C1", "Target Or Test System": "LG0567-F671-PDC complex spheroids viability", "Group": "Y"}
{"Molecule": "CC(C)NCC(C(=O)N1CCN(c2ncnc3c2C(C)CC3O)CC1)c1ccc(Cl)cc1 (stereo unspecified) + C#Cc1c(F)ccc2cc(O)cc(-c3ncc4c(N5CC6CCC(C5)N6)nc(OCC56CCCN5CC(F)C6)nc4c3F)c12", "Target Or Test System": "LG0567-F671-PDC complex spheroids viability", "Group": "N"}

Now look at this one.
Assay result, entry CC(=O)OC12COC1CC(O)C1(C)C(=O)C(O)C3=C(C)C(OC(=O)C(O)C(NC(=O)OC(C)(C)C)c4ccccc4)CC(O)(C(OC(=O)c4ccccc4)C21)C3(C)C (stereo unspecified) + C=CC(=O)N1CCN(c2nc(OCC3CCCN3C)nc3c(F)c(-c4nc(N)cc(C)c4C(F)(F)F)c(Cl)cc23)C(C)C1 — outcome? N

====

test system: LG0567-F671-PDC complex spheroids viability; assay: Anticancer human tumor LG0567-F671-PDC cell line growth inhibition [RAS]; conditions: second compound 0.03 µM; first compound 0.00316 µM; hits give low values;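 also: spheroids exposed to compound for seven days before readout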
Observed Property: viability, T/C (%)
Report the figure in % without appending any unit label.

Some compounds with known viability, T/C results, for comparison:
{"Compound": "CCN1CCN(Cc2ccc(Nc3ncc(F)c(-c4cc(F)c5nc(C)n(C(C)C)c5c4)n3)nc2)CC1 + CCn1c(-c2cc(N3CCN(C)CC3)cnc2C(C)OC)c2c3cc(ccc31)-c1csc(n1)CC(NC(=O)C1CC1C)C(=O)N1CCCC(N1)C(=O)OCC(C)(C)C2", "Measure Unit": "%", "viability, T/C": 4.36}
{"Compound": "C=CC(=O)N1CCN(c2nc(OCC3CCCN3C)nc3c(F)c(-c4nc(N)cc(C)c4C(F)(F)F)c(Cl)cc23)C(C)C1 (stereo unspecified) + CCn1c(-c2cc(N3CCN(C)CC3)cnc2C(C)OC)c2c3cc(ccc31)-c1csc(n1)CC(NC(=O)C1CC1C)C(=O)N1CCCC(N1)C(=O)OCC(C)(C)C2", "Measure Unit": "%", "viability, T/C": 3.64}
{"Compound": "CCN1CCN(Cc2ccc(Nc3ncc(F)c(-c4cc(F)c5nc(C)n(C(C)C)c5c4)n3)nc2)CC1 + CCn1c(-c2cccnc2C(C)OC)c2c3cc(ccc31)N1CCOC(CC(NC(=O)C(C(C)C)N(C)C(=O)C3(F)CCN(C(=O)C#CC(C)(C)N(C)C)CC3)C(=O)N3CCCC(N3)C(=O)OCC(C)(C)C2)C1", "Measure Unit": "%", "viability, T/C": 13.1}

Recorded viability, T/C for Nc1ccn(C2OC(CO)C(O)C2(F)F)c(=O)n1 (stereo unspecified) + CCn1c(-c2cccnc2C(C)OC)c2c3cc(ccc31)N1CCOC(CC(NC(=O)C(C(C)C)N(C)C(=O)C3(F)CCN(C(=O)C#CC(C)(C)N(C)C)CC3)C(=O)N3CCCC(N3)C(=O)OCC(C)(C)C2)C1 , please? 12.3

Entry C=CC(=O)N1CCN(c2nc(OCC3CCCN3C)nc3c(F)c(-c4nc(N)cc(C)c4C(F)(F)F)c(Cl)cc23)C(C)C1 (stereo unspecified) + CCn1c(-c2cccnc2C(C)OC)c2c3cc(ccc31)N1CCOC(CC(NC(=O)C(C(C)C)N(C)C(=O)C3(F)CCN(C(=O)C#CC(C)(C)N(C)C)CC3)C(=O)N3CCCC(N3)C(=O)OCC(C)(C)C2)C1 please 13.6

Entry O=C(c1ccc(F)c(F)c1Nc1ccc(I)cc1F)N1CC(O)([C@@H]2CCCCN2)C1 + CCn1c(-c2cccnc2C(C)OC)c2c3cc(ccc31)N1CCOC(CC(NC(=O)C(C(C)C)N(C)C(=O)C3(F)CCN(C(=O)C#CC(C)(C)N(C)C)CC3)C(=O)N3CCCC(N3)C(=O)OCC(C)(C)C2)C1 please 10.9

====

tested on: LG0567-F671-PDC complex spheroids viability; test: Anticancer human tumor LG0567-F671-PDC cell line growth inhibition [RAS]; conditions: second compound 0.0949 µM; first compound 10 µM; hits give low values;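 also: spheroids exposed to compound for seven days before readout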
viability, T/C strictly under 3% means YES; at 3% or over means NO.

# strict comparison: is reported viability, T/C < 3%? input = Cc1nc(N2CCC3(CC2)COC(C)C3N)c(CO)nc1Sc1ccnc(N)c1Cl (stereo unspecified) + CCn1c(-c2cc(N3CCN(C)CC3)cnc2C(C)OC)c2c3cc(ccc31)-c1csc(n1)CC(NC(=O)C1CC1C)C(=O)N1CCCC(N1)C(=O)OCC(C)(C)C2 YES

Entry CC(Nc1ccc2c(c1)OCCn1cc(N3C(=O)OCC3C(F)F)nc1-2)C(N)=O (stereo unspecified) + CCn1c(-c2cccnc2C(C)OC)c2c3cc(ccc31)N1CCOC(CC(NC(=O)C(C(C)C)N(C)C(=O)C3(F)CCN(C(=O)C#CC(C)(C)N(C)C)CC3)C(=O)N3CCCC(N3)C(=O)OCC(C)(C)C2)C1 please YES

Entry NC1c2ccccc2OC12CCN(c1cnc3c(N4CCCc5ncccc54)n[nH]c3n1)CC2 (stereo unspecified) + CCn1c(-c2cc(N3CCN(C)CC3)cnc2C(C)OC)c2c3cc(ccc31)-c1csc(n1)CC(NC(=O)C1CC1C)C(=O)N1CCCC(N1)C(=O)OCC(C)(C)C2 please YES

Entry CC(C)NCC(C(=O)N1CCN(c2ncnc3c2C(C)CC3O)CC1)c1ccc(Cl)cc1 (stereo unspecified) + CCn1c(-c2cc(N3CCN(C)CC3)cnc2C(C)OC)c2c3cc(ccc31)-c1csc(n1)CC(NC(=O)C1CC1C)C(=O)N1CCCC(N1)C(=O)OCC(C)(C)C2 please YES

Entry C[C@@H](NC(=O)c1ncnc(N)c1Cl)c1ncc(C(=O)Nc2cc(C(F)(F)F)c(Cl)cn2)s1 + CCn1c(-c2cccnc2C(C)OC)c2c3cc(ccc31)N1CCOC(CC(NC(=O)C(C(C)C)N(C)C(=O)C3(F)CCN(C(=O)C#CC(C)(C)N(C)C)CC3)C(=O)N3CCCC(N3)C(=O)OCC(C)(C)C2)C1 please NO

Entry Cc1nc(N2CCC3(CC2)COC(C)C3N)c(CO)nc1Sc1ccnc(N)c1Cl (stereo unspecified) + CCn1c(-c2cccnc2C(C)OC)c2c3cc(ccc31)N1CCOC(CC(NC(=O)C(C(C)C)N(C)C(=O)C3(F)CCN(C(=O)C#CC(C)(C)N(C)C)CC3)C(=O)N3CCCC(N3)C(=O)OCC(C)(C)C2)C1 please NO

====

tested on: LG0567-F671-PDC complex spheroids viability; assay: Anticancer human tumor LG0567-F671-PDC cell line growth inhibition [RAS]; settings: second compound 0.003 µM; first compound 0.1 µM; hits give low values;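 also: spheroids exposed to compound for seven days before readout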
Form field: viability, T/C (one value per entry).
Report the figure in % without appending any unit label.

Some compounds with known viability, T/C results, for comparison:
{"Compound": "Nc1ccn(C2OC(CO)C(O)C2(F)F)c(=O)n1 (stereo not given) + CCn1c(-c2cc(N3CCN(C)CC3)cnc2C(C)OC)c2c3cc(ccc31)-c1csc(n1)CC(NC(=O)C1CC1C)C(=O)N1CCCC(N1)C(=O)OCC(C)(C)C2", "viability, T/C (%)": 8.86}
{"Compound": "C=CC(=O)N1CCN(c2nc(OCC3CCCN3C)nc3c(F)c(-c4nc(N)cc(C)c4C(F)(F)F)c(Cl)cc23)C(C)C1 (stereo not given) + CCn1c(-c2cccnc2C(C)OC)c2c3cc(ccc31)N1CCOC(CC(NC(=O)C(C(C)C)N(C)C(=O)C3(F)CCN(C(=O)C#CC(C)(C)N(C)C)CC3)C(=O)N3CCCC(N3)C(=O)OCC(C)(C)C2)C1", "viability, T/C (%)": 13.8}
{"Compound": "CC1(O)CCCC1n1c(=O)c(C(F)F)cc2cnc(NC3CCN(S(C)(=O)=O)CC3)nc21 (stereo not given) + CCn1c(-c2cc(N3CCN(C)CC3)cnc2C(C)OC)c2c3cc(ccc31)-c1csc(n1)CC(NC(=O)C1CC1C)C(=O)N1CCCC(N1)C(=O)OCC(C)(C)C2", "viability, T/C (%)": 15.6}
{"Compound": "O=C(c1ccc(F)c(F)c1Nc1ccc(I)cc1F)N1CC(O)([C@@H]2CCCCN2)C1 + CCn1c(-c2cccnc2C(C)OC)c2c3cc(ccc31)N1CCOC(CC(NC(=O)C(C(C)C)N(C)C(=O)C3(F)CCN(C(=O)C#CC(C)(C)N(C)C)CC3)C(=O)N3CCCC(N3)C(=O)OCC(C)(C)C2)C1", "viability, T/C (%)": 7.29}

Turning now to a further compound:
Recorded viability, T/C for CCC(CC)c1cc(NC2CCC(N)C2)n2nccc2n1 (stereo not given) + CCn1c(-c2cccnc2C(C)OC)c2c3cc(ccc31)N1CCOC(CC(NC(=O)C(C(C)C)N(C)C(=O)C3(F)CCN(C(=O)C#CC(C)(C)N(C)C)CC3)C(=O)N3CCCC(N3)C(=O)OCC(C)(C)C2)C1 , please? 16.1
